study-system: TIE2 (Homo sapiens, UniProt Q02763)
Construct: purchased BPS 40270
Sequence (Q02763 23-1124): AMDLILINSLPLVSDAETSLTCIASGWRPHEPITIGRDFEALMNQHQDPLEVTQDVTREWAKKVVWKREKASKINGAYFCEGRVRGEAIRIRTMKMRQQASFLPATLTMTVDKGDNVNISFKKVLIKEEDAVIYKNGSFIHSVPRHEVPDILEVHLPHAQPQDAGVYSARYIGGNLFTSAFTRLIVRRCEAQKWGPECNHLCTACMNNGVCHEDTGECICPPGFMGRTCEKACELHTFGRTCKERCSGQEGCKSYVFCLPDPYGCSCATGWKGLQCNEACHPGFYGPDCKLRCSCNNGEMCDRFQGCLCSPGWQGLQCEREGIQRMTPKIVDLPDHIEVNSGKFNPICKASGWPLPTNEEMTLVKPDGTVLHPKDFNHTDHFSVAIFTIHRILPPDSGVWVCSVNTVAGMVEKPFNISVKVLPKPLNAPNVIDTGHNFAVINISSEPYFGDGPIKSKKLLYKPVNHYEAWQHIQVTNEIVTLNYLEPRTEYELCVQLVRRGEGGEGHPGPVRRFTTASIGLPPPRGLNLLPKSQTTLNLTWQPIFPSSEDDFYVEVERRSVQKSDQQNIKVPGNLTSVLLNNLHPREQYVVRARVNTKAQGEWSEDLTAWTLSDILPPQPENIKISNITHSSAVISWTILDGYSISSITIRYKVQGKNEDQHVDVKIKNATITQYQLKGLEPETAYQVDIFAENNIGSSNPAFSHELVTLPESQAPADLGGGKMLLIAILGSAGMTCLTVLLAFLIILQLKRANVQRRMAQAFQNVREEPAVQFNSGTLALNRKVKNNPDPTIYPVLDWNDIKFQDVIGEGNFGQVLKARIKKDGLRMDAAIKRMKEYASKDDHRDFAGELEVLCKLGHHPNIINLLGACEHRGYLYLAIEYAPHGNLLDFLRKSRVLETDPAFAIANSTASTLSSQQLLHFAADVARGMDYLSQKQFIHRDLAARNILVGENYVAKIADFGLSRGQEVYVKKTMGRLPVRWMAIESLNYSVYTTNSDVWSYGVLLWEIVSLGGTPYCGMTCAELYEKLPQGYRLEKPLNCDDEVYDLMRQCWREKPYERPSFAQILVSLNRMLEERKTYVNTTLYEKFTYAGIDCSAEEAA
experiment-notes: Kinase inhibition, Mobility Shift Assay/IMAP, TIE2
Format: biochemical
pIC50: −log10 of the molar value.

- molecular-string: "NC(=O)c1c(OCc2cc(C(=O)NC3CC3)ccc2F)nsc1NC(=O)NCCCN1CC[C@@H](F)C1"
  relation-symbol: "="
  pIC50: 5.68
- molecular-string: "NC(=O)c1c(OCc2cc(C(=O)NC3CC3)ccc2F)nsc1NC(=O)NCCCN1CC[C@H](F)C1"
  relation-symbol: "="
  pIC50: 5.63
- molecular-string: "CC(C)(C)[Si](C)(C)OCCCNC(=O)Nc1snc(OCc2cc(C(=O)NC3CC3)ccc2F)c1C(N)=O"
  relation-symbol: "<"
  pIC50: 4.22
- molecular-string: "CN1CCC(CCNC(=O)Nc2snc(OCc3cc(F)c4c(c3)OCC4)c2C(N)=O)CC1"
  relation-symbol: "="
  pIC50: 6.87
- molecular-string: "NC(=O)c1c(OCc2cc(C(=O)NC3CC3)ccc2F)nsc1NC(=O)NCCCN1CCCC1"
  relation-symbol: "="
  pIC50: 5.31
- molecular-string: "CN1CCN(CCNC(=O)Nc2snc(OCc3cccc(C(=O)NC4CC4)c3)c2C(N)=O)CC1"
  relation-symbol: "="
  pIC50: 5.27
- molecular-string: "CN1CC[C@@H](CCNC(=O)Nc2snc(OCc3cc4c(cc3F)CCO4)c2C(N)=O)C1"
  relation-symbol: "="
  pIC50: 6.85
- molecular-string: "NC(=O)c1c(OCc2ccc3c(c2)OCC3)nsc1NC(=O)NCCCCN1CCCC1"
  relation-symbol: "="
  pIC50: 6.35
- molecular-string: "NC(=O)c1c(OCc2cc(C(=O)NC3CC3)ccc2F)nsc1NC(=O)NCCC(=O)O"
  relation-symbol: "="
  pIC50: 5.49
- molecular-string: "COc1ccc(F)c(COc2nsc(NC(=O)NCCCN3CCN(C)CC3)c2C(N)=O)c1F"
  relation-symbol: "="
  pIC50: 6.91
- molecular-string: "COc1ccc(Cl)c(COc2nsc(NC(=O)NCCCCN3CCCC3)c2C(N)=O)c1F"
  relation-symbol: "="
  pIC50: 6.13
- molecular-string: "NC(=O)c1c(OCc2cc3c(cc2F)CCO3)nsc1NC(=O)NCCCCN1CC[C@@H](F)C1"
  relation-symbol: "="
  pIC50: 6.94
- molecular-string: "NC(=O)c1c(OCc2cc(C(=O)NC3CC3)ccc2Cl)nsc1NC(=O)NCCCCN1CCCC1"
  relation-symbol: "="
  pIC50: 6.01
- molecular-string: "CN1CCC(CCNC(=O)Nc2snc(OCc3ccc4c(c3)OCC4)c2C(N)=O)CC1"
  relation-symbol: "="
  pIC50: 6.59
- molecular-string: "COc1ccc(F)c(COc2nsc(NC(=O)NCCCCN3CCC(F)(F)CC3)c2C(N)=O)c1F"
  relation-symbol: "="
  pIC50: 6.33
- molecular-string: "COc1cc(COc2nsc(NC(=O)NCCCCN3CCCC3)c2C(N)=O)c(F)c(OC)c1"
  relation-symbol: "="
  pIC50: 6.38
